Exercise: state measured GI50 for each of the molecules provided.
# Tested on: DLD-1
# ASSAY: NCI tumour cell line growth inhibition, 48 h
The source made the active and inactive calls. Cut-off read from the data, not from the text of the source: active = GI50 up to about 1.1 µM and inactive = higher.

[in] I have this molecule here, CC1OC=CC(=O)C1O (configuration not stated) , and I need its recorded GI50.
[out] > 100 µM (inactive)

[in] Moving on to the next molecule: `O=c1oc2c(ccc3occc32)c(N2CCCCC2)c1-c1ccccc1`
[out] > 100 µM (inactive)

[in] Moving on to the next molecule: `N#C/C(=N\c1ccccc1N(C(=O)c1ccccc1)C(=O)c1ccccc1)c1ccccc1`
[out] > 42 µM (inactive)

[in] Moving on to the next molecule: CCOC(=O)C1=C(C)N(NC(N)=O)C(C)(O)C12CCOC2=O (configuration not stated)
[out] > 100 µM (inactive)

[in] Moving on to the next molecule: `CCOC(=O)/C=C/c1c[nH]c(=O)[nH]c1=O`
[out] > 75 µM (inactive)

[in] Moving on to the next molecule: COc1cc(C2C(C(=O)O)=C(COC(C)=O)Oc3cc4c(cc32)OCO4)cc(OC)c1OC(C)=O (configuration not stated)
[out] > 100 µM (inactive)

[in] Moving on to the next molecule: COC(=O)CC(C(C(=O)OCc1ccccc1)C(C)O)N1C(=O)OC(c2ccccc2)C1c1ccccc1 (configuration not stated)
[out] > 100 µM (inactive)

[in] Moving on to the next molecule: `CC1=C[C@@H]2Cc3occc3C(C)(C)[C@@H]2CC1`
[out] 17.7 µM (inactive)

[in] Moving on to the next molecule: CN(C)/N=C(\CCN1CCCC1)CC(c1ccccc1)c1c(O)c2ccccc2oc1=O (configuration not stated)
[out] > 100 µM (inactive)

[in] Moving on to the next molecule: COC1/C(=C\c2ccccc2I)c2ccccc2N1C(C)=O (configuration not stated)
[out] 15.5 µM (inactive)

[in] Moving on to the next molecule: `N=C(N)NS(=O)(=O)c1ccc(Nc2c3ccccc3nc3c(C(=O)N4CCN(CCO)CC4)cccc23)cc1`
[out] > 100 µM (inactive)

[in] Moving on to the next molecule: `COC(=O)CC(=O)C[P+](c1ccccc1)(c1ccccc1)c1ccccc1`
[out] 194 µM (inactive)

[in] Moving on to the next molecule: `COc1ccccc1NC(=O)c1nc2ccc([N+](=O)[O-])cc2nc1C`
[out] > 100 µM (inactive)

[in] Moving on to the next molecule: OC1C2C=CCC1CCC2 (configuration not stated)
[out] > 100 µM (inactive)

[in] Moving on to the next molecule: `O=C(CC(=O)n1nc(-c2ccccc2)c(/N=N/c2ccc(Cl)cc2)c1-c1ccccc1)Nc1ccc(Cl)cc1`
[out] 18.6 µM (inactive)

[in] Moving on to the next molecule: `Cc1ccc(S(=O)(=O)c2c(N)c3nccn3c3nc4ccccc4nc23)cc1`
[out] > 100 µM (inactive)

[in] Moving on to the next molecule: `O=C(O)/C=C/c1ccncc1`
[out] > 100 µM (inactive)

[in] Moving on to the next molecule: `O=C(O)COc1ccccc1C(=O)Nc1ccccc1`
[out] > 100 µM (inactive)

[in] Moving on to the next molecule: COc1ccc(C(=O)C(c2ccc(OC)cc2)C2C(=O)Oc3ccccc32)cc1 (configuration not stated)
[out] > 10 µM (inactive)

[in] Moving on to the next molecule: `C#Cc1c(C)c(/C=C/C(C)=C/C=C/C(C)=C/C(=O)OC)n(C)c1C`
[out] > 100 µM (inactive)

[in] Moving on to the next molecule: `O=C(N[C@@H](c1ccccc1)[C@@H](O)C(=O)OCc1ccc2c(c1)OCO2)c1ccccc1`
[out] > 100 µM (inactive)

[in] Moving on to the next molecule: `COC(=O)C1=C(O)C(O)=C(C(=O)OC)C1`
[out] > 100 µM (inactive)
